# credit: patent US20260250320A1

# testSystem: T1, interleukin-23 receptor (IL-23R) (UniProt Q5VWK5 24-629, limits assumed)
# T1 sequence (looked up): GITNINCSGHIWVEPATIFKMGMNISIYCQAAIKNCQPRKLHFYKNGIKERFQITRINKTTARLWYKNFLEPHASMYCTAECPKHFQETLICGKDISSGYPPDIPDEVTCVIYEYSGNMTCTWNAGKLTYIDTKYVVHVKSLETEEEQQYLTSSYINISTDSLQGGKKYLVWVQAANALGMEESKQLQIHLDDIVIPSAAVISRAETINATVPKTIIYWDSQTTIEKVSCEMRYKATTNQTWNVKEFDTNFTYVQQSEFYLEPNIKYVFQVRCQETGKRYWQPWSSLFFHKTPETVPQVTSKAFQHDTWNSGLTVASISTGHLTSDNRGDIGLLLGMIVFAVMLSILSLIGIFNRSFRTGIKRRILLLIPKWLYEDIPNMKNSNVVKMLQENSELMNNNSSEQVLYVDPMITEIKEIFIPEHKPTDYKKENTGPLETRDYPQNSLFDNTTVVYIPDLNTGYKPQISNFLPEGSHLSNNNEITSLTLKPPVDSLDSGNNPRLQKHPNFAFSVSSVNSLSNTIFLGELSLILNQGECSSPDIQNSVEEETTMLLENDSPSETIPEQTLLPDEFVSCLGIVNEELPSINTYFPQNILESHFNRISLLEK
# procedureDetails: cell-based or functional assay
*1 amine or outer side, *2 acyl side, *3 side chain or, on linkers, in order; H or OH if unused. Bridges are numbered along the chain shown (N, C = ends). Primed or numbered codes have the meaning given here. Where no end group is shown, it is not given here. Side-chain parts run from the residue outwards. [ ]: non-standard residue; d: D form. The star is where a group is joined. code d = side-chain group of K(d): lysine given as (2R)-2-(4-((5-amino-5-carboxypentyl)amino)-4-oxobutanamido)-3-carboxy-N,N,N-trimethylpropan-1-aminium, C[N+](C)(C)C[C@@H](CC(=O)O)NC(=O)CCC(=O)*; PEG2′ = PEG2 spacer unit (not further defined); Trp(7-Me) = Cc1cccc2c(C[C@H](N)C(=O)O)c[nH]c12; γGlu = O=C(O)[C@H](CCC(=O)[*:2])N[*:1]; 2Nal = N[C@@H](Cc1ccc2ccccc2c1)C(=O)O; AEF = NCCOc1ccc(C[C@H](N)C(=O)O)cc1; 3Pal = N[C@@H](Cc1cccnc1)C(=O)O; NMeK = CN[C@@H](CCCCN)C(=O)O; NMecPEG3a = not defined here; Pen = CC(C)(S)[C@H](N)C(=O)O; PEG2″ = PEG2 spacer unit; Thp = NC1(C(=O)O)CCOCC1; Sar = CNCC(=O)O
quantityKind: IC50, IL23R reporter assay

binder: Ac-[dR][Pen]K([PEG2″-PEG2″-γGlu-C18OH])T[Trp(7-Me)]K(Ac)[Pen][AEF][2Nal][Thp]K(NMecPEG3a)N[3Pal][Sar]-NH2 (disulfide 2-7 (inferred); reading uncertain; also: printed as MeCO-r-Pen(3)-K(PEG2PEG2gEC18OH)-T-7MeW-K(Ac)-Pen(3)-AEF-2Nal-THP-K(NMecPEG3a)-N-3Pya-Sar-CONH2) [SEQ ID NO: 74]
quantityKind: IC50, IL23R reporter assay
endpointResult: < 50 nM

binder: XNTXXXXXXENXXK (MeCO-Pen(3)-N-T-7MeW-K(Ac)-Pen(3)-AEF-2Nal-THP-E-N-3Pya-Sar-K(PEG12gEC20OH)-CONH2) [SEQ ID NO: 103]
quantityKind: IC50, IL23R reporter assay
endpointResult: < 50 nM

binder: [dR][Pen]NT[Trp(7-Me)]K(Ac)[Pen][AEF][2Nal][Thp]EN[3Pal][NMeK](code d)-NH2 (disulfide 2-7 (inferred); not fully specified (N-terminus); printed as HOC18gEPEG2PEG2CO-r-Pen(3)-N-T-7MeW-K(Ac)-Pen(3)-AEF-2Nal-THP-E-N-3Pya-NMeK(d)-CONH2) [SEQ ID NO: 43]
quantityKind: IC50, IL23R reporter assay
endpointResult: < 50 nM

binder: Ac-K([PEG2′-PEG2′-γGlu-C18OH])[Pen]NT[Trp(7-Me)]K(Ac)[Pen][AEF][2Nal][Thp]K(Ac)N[3Pal][Sar]-NH2 (disulfide 2-7 (inferred)) [SEQ ID NO: 39]
quantityKind: IC50, IL23R reporter assay
endpointResult: < 50 nM

binder: {HOC18-γGlu-PEG2′-PEG2′}-[dR][Pen]NT[Trp(7-Me)]K(NMecPEG3a)[Pen][AEF][2Nal][Thp]EN[3Pal][Sar]-NH2 (disulfide 2-7 (inferred); not fully specified; printed as HOC18gEPEG2PEG2CO-r-Pen(3)-N-T-7MeW-K(NMecPEG3a)-Pen(3)-AEF-2Nal-THP-E-N-3Pya-Sar-CONH2; reading uncertain) [SEQ ID NO: 84]
quantityKind: IC50, IL23R reporter assay
endpointResult: < 50 nM
